Experiment: Single-dose pharmacokinetics in SD rats
Type: in vivo
Conditions: Sprague-Dawley, rat, plasma, im, alone (GC376 111 mg/kg; GS441524 67 mg/kg), plasma, read-out: MRT0−t
Known MRT last of a selection of molecules
Kindly provide the numeric value in h only, without the unit symbol.

molecule	MRT last / h
N#C[C@@]1(c2ccc3c(N)ncnn23)O[C@H](CO)[C@@H](O)[C@H]1O	4.5

Task: Supply reported MRT last belonging to this molecule: CC(C)CC(NC(=O)OCc1ccccc1)C(=O)NC(CC1CCNC1=O)C(O)S(=O)(=O)O (centres unmarked)
Result: 5.83

====

Test: Single-dose pharmacokinetics in BALB/c mice
Type: in vivo
Settings: BALB/c, mouse, plasma, im, 33.5 mg/kg, BALB/c mice, i.m., combined (GC376 55.5 + GS441524 33.5 mg/kg), plasma; read-out: MRT0−∞
parameter-measured: MRT inf
# number then unit; no other words

Task: Supply reported MRT inf belonging to this compound: N#C[C@@]1(c2ccc3c(N)ncnn23)O[C@H](CO)[C@@H](O)[C@H]1O
Result: 2.48 h

====

Test: Single-dose pharmacokinetics in SD rats
Type: in vivo
Conditions: Sprague-Dawley, rat, plasma, im, alone (GC376 111 mg/kg; GS441524 67 mg/kg)
parameter-measured: Tmax (h)
Kindly provide the numeric value in h only, without the unit symbol.

compound	display-unit	Tmax
CC(C)CC(NC(=O)OCc1ccccc1)C(=O)NC(CC1CCNC1=O)C(O)S(=O)(=O)O (centres unmarked) [GC376]	h	1.3

Lab note: next compound to report on.
Task: Supply reported Tmax belonging to this compound: N#C[C@@]1(c2ccc3c(N)ncnn23)O[C@H](CO)[C@@H](O)[C@H]1O [GS441524]
Result: 2

====

Assay: Single-dose pharmacokinetics in SD rats
Type: in vivo
Settings: Sprague-Dawley, rat, plasma, im, 33.5 mg/kg, i.m., combined (GC376 55.5 + GS441524 33.5 mg/kg), plasma
parameter-measured: half-life
# number then unit; no other words

Task: Supply reported half-life belonging to this compound: N#C[C@@]1(c2ccc3c(N)ncnn23)O[C@H](CO)[C@@H](O)[C@H]1O [GS441524]
Result: 5.13 h

====

Experiment: Single-dose pharmacokinetics in BALB/c mice
Type: in vivo
Settings: BALB/c, mouse, plasma, im, 33.5 mg/kg, BALB/c mice, i.m., combined (GC376 55.5 + GS441524 33.5 mg/kg), plasma
parameter-measured: AUC(0-t) (ng·h/mL)
Kindly provide the numeric value in ng·h/mL only, without the unit symbol.

Task: Supply reported AUC(0-t) belonging to this compound: N#C[C@@]1(c2ccc3c(N)ncnn23)O[C@H](CO)[C@@H](O)[C@H]1O [GS441524]
Result: 49000

====

Test: Single-dose pharmacokinetics in BALB/c mice
Type: in vivo
Settings: BALB/c, mouse, plasma, im, 33.5 mg/kg, BALB/c mice, i.m., combined (GC376 55.5 + GS441524 33.5 mg/kg), plasma
parameter-measured: CL/F (mL/min/kg)
Kindly provide the numeric value in mL/min/kg only, without the unit symbol.

Task: Supply reported CL/F belonging to this compound: N#C[C@@]1(c2ccc3c(N)ncnn23)O[C@H](CO)[C@@H](O)[C@H]1O [GS441524]
Result: 11.8
